# TEST SYSTEM: Human Testicular C17,20-lyase (Homo sapiens)
# Construct: incubating human testicular microsomes; from tissue; host or cells: human testis, microsomes
# Sequence (P05093 whole entry): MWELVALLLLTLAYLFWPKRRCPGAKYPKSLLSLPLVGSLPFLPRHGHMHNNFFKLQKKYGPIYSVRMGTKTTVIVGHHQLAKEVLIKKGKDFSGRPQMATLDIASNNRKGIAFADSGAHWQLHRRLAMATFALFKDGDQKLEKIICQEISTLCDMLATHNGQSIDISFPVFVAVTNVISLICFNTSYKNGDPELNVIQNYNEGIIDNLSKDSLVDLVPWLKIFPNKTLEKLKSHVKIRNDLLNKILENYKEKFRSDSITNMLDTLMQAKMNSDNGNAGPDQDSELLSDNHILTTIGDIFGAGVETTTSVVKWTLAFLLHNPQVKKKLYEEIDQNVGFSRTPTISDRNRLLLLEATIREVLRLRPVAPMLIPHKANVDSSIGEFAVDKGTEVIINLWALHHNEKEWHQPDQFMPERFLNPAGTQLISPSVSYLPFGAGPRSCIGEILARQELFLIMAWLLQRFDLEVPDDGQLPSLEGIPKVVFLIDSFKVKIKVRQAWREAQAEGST
# TEST: Inhibition of human testicular C17,20-lyase (pregnenolone substrate, testicular microsomes)
# Type: biochemical
# MEASUREMENT CONTEXT: read-out: IC50 C17,20 lyase
REPORTED ENDPOINT: pIC50
Reminder that pIC50 is minus the log10 of a molar concentration.

Query :: For Human Testicular C17,20-lyase (Homo sapiens), provide pIC50 of "CC(=O)O[C@H]1CC[C@@]2(C)C(=CC[C@@H]3[C@@H]2CC[C@]2(C)C(C(C)=O)=CC[C@@H]32)C1" please.
Result :: 5.77

* * *

# TEST SYSTEM: Human Testicular 17α-Hydroxylase (Homo sapiens, UniProt P05093)
# Construct: incubating human testicular microsomes; from tissue; host or cells: human testis, microsomes
# TEST: Inhibition of human testicular 17α-hydroxylase (pregnenolone substrate, testicular microsomes)
# Assay type: biochemical
# MEASUREMENT CONTEXT: first figure of pair; read-out: IC50 17α-hydroxylase
Readings of IC50 for the listed compounds
Please state the figure in nM; there is no need to write the unit.

The cases that follow already have their IC50 on record.
# COMPOUND, IC50 [nM]
data = [
    ("C[C@]12CCC(=O)C=C1CC[C@@H]1[C@@H]2CC[C@]2(C)C(c3c[nH]cn3)=CC[C@@H]12", 16),
    ("C[C@]12CC[C@H]3[C@@H](CCC4=CC(=O)CC[C@@]43C)[C@@H]1CC[C@@H]2c1c[nH]cn1", 59),
]

Query :: Entry "C[C@]12CCC(=O)C=C1CC[C@@H]1[C@@H]2CC[C@@]2(C)[C@H]1CC[C@]2(O)c1c[nH]cn1" : reported IC50 = ?
Result :: 1200

Query :: Requested read-out: IC50. Entry: "C[C@]12CC[C@H](O)CC1=CC[C@@H]1[C@@H]2CC[C@]2(C)C(c3c[nH]cn3)=CC[C@@H]12"
Result :: 4

Query :: Reported IC50 for "C[C@]12CC[C@H]3[C@@H](CC=C4C[C@@H](O)CC[C@@]43C)[C@@H]1CC[C@@H]2c1c[nH]cn1" : what is it?
Result :: 11

Query :: So what's the measured IC50 for this one? "C[C@]12CC[C@H](O)CC1=CC[C@@H]1[C@@H]2CC[C@@]2(C)[C@H]1C[C@H]1O[C@]12c1c[nH]cn1"
Result :: 431

Query :: Recorded IC50 for CC(=NO)C1=CC[C@H]2[C@@H]3CCC4=CC(=O)CC[C@]4(C)[C@H]3CC[C@]12C [Compound L-2, 16-dehydroprogesterone-20-oxime] , please?
Result :: 6

Query :: Value lookup for IC50; key = "CC(=O)O[C@H]1CC[C@@]2(C)C(=CC[C@@H]3[C@@H]2CC[C@]2(C)C(c4c[nH]cn4)=CC[C@@H]32)C1"
Result :: 75

* * *

# TEST SYSTEM: Human Prostatic 5α-Reductase (Homo sapiens)
# Sequence (P31213 whole entry): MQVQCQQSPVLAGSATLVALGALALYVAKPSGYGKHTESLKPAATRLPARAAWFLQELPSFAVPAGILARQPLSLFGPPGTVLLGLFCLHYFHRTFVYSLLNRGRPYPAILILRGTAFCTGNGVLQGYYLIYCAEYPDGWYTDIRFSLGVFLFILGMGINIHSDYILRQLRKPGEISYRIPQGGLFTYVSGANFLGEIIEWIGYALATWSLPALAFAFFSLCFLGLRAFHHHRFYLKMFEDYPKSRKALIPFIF
# TEST: Inhibition of human prostatic 5α-reductase (prostatic microsomes, [3H]testosterone)
# MEASUREMENT CONTEXT: IC50 5α-reductase
IC50 less than 20 nM is satisfied; IC50 greater than or equal to 20 nM is not satisfied.

Examples with answers:
# COMPOUND, TEST SYSTEM, QUALITATIVE LABEL
records = [
    ("CC(C)(C)NC(=O)[C@H]1CC[C@H]2[C@@H]3CC[C@H]4NC(=O)C=C[C@]4(C)[C@H]3CC[C@]12C [Finasteride, reference compound]", "Human Prostatic 5α-Reductase (Homo sapiens)", "satisfied"),
    ("C[C@]12CCC(=O)C=C1CC[C@@H]1[C@@H]2CC[C@]2(C)C(c3c[nH]cn3)=CC[C@@H]12", "Human Prostatic 5α-Reductase (Homo sapiens)", "not satisfied"),
    ("C[C@]12CC[C@H]3[C@@H](CCC4=CC(=O)CC[C@@]43C)[C@@H]1CC[C@@H]2c1c[nH]cn1", "Human Prostatic 5α-Reductase (Homo sapiens)", "not satisfied"),
    ("CC(=NO)C1=CC[C@H]2[C@@H]3CCC4=CC(=O)CC[C@]4(C)[C@H]3CC[C@]12C [Compound L-2, 16-dehydroprogesterone-20-oxime]", "Human Prostatic 5α-Reductase (Homo sapiens)", "not satisfied"),
    ("CC(=O)C1=CC[C@H]2[C@@H]3CCC4=CC(=O)CC[C@]4(C)[C@H]3CC[C@]12C [Compound L-13, 16-dehydroprogesterone]", "Human Prostatic 5α-Reductase (Homo sapiens)", "not satisfied"),
    ("C[C@@H](O)[C@H]1CC[C@H]2[C@@H]3CCC4=CC(=O)CC[C@]4(C)[C@H]3CC[C@]12C", "Human Prostatic 5α-Reductase (Homo sapiens)", "not satisfied"),
]

We now examine a further compound.
Query :: Is 20 nM strictly greater than the compound's reported IC50? compound: "C[C@H](O)[C@H]1CC[C@H]2[C@@H]3CCC4=CC(=O)CC[C@]4(C)[C@H]3CC[C@]12C"
Result :: satisfied

# credit: patent US5994334A
